Overview of recorded growth inhibition for various molecules
# protocolDetails: NCI Yeast Anticancer Drug Screen. Data for the rad50 strain (AID 155);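 note: 0% = growth of vehicle-only cultures of the same strain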
# setupConditions: S. cerevisiae rad50 strain growth inhibition, stronger effect = higher value; at 50.0 µM unless noted
This is part of a sample that, as a whole, favours compounds with a hit. Of some 79,000 tested, about 15% had one in any assay.
Give the quantity in %, number only.

Recorded growth inhibition, per entry:
O=C1OC2C(O)C(CO)OC2n2c1cc(=O)[nH]c2=O (centres undefined); 2.55
CS(=O)(=O)OC1Cc2ccccc2C1; 12.6
COc1ccc2nc3cccc([N+](=O)[O-])c3c(NC(C)CN(C)C)c2c1 (centres undefined); 52
CN=c1ss/c(=N\C(=S)N(C)C)n1C1CCCCC1; -9.6
CC(CO)Cc1ccccc1 (centres undefined); -1.85
O=C1c2cc(F)ccc2-c2c(F)ccc(F)c21; 38.1
CN(C)C1=C(Cl)C(=O)C(=O)c2cccnc21; 32.3
O=C(NO)/C(CC(=O)c1cccc(O)c1)=N\O; -7.05
Cn1c(=O)c2nc(SCC(=O)O)n(C)c2n(C)c1=O; 3.6
CC/C(CC(=O)CCC(=O)Nc1ccc(C)c(C)c1)=N\NC(=O)c1cc2ccccc2cc1O; 45.2

Turning now to a further molecule:
Query: Fill in: growth inhibition of "COc1cc([N+](=O)[O-])c(S(=O)(=O)O)cc1NS(=O)(=O)c1ccc(C)cc1" is ___
Response: 7.8

----------
# protocolDetails: NCI Yeast Anticancer Drug Screen. Data for the rad50 strain (AID 155);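 note: 0% = growth of vehicle-only cultures of the same strain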
# setupConditions: S. cerevisiae rad50 strain growth inhibition, stronger effect = higher value; at 50.0 µM unless noted
Compounds without any hit were thinned out: in the full panel of roughly 79,000, 15% have a hit.
readoutType: growth inhibition (%)
Output spec: scalar in %, unitless text.

CSc1nc2c([nH]1)c(=O)n(C)c(=S)n2C; 4.95

Query: State the recorded growth inhibition for this entry: N#CCN(CC#N)C1CC=CCC1N(CC#N)CC#N (stereo not given)
Response: -26.2

Query: // returns reported growth inhibition for input "Cc1ncc(C(N)=S)c(N)n1"
Response: 9.95

Query: Look up growth inhibition for this molecule: "C1CSCCSCCS1"
Response: 11.6

Query: Return reported growth inhibition; argument: "Cc1cccc(C)c1I"
Response: -35

Query: Entry "CCCCCCCCCc1cc(=O)c2c(O)cccc2o1" has what growth inhibition?
Response: -25.8

Query: Any idea what growth inhibition was measured for "Cc1n[nH]c(=O)n1/N=C/c1ccncc1" ?
Response: 8.45

Query: What measured growth inhibition goes with COc1cccc(C2c3cc4c(cc3OC(C)(O)C2C)OCO4)c1O (stereo not given) ?
Response: -4.7

Query: Quick check: growth inhibition of "O=C(Nc1ccc(Nc2ccc3c(c2)C(=O)c2ccccc2C3=O)c2c1C(=O)c1ccccc1C2=O)c1ccccc1" ?
Response: -35.7

Query: What does the data say about its growth inhibition? Entry: C=C1CC(COc2ccc3c(C)c(Cl)c(=O)oc3c2)(c2ccccc2)OC1=O (stereo not given)
Response: 19

Query: Data request, read-out growth inhibition, for COc1ccc(C2=NC(CO)[C@H](c3ccccc3)O2)cc1OC (stereo not given in full)
Response: 2.35

Query: If you can, please state the reported growth inhibition value of "Cc1ccc(NC(=O)CCCl)cc1" .
Response: 3.4

Query: Entry under review: "O=S(=O)(N/N=C/c1cccc(Cl)c1Cl)c1ccccc1" . Reported growth inhibition?
Response: 9.3

Query: May I ask what growth inhibition has been recorded for "CCN(Cc1ccccc1)c1nnnn1-c1ccccc1" ?
Response: -2.5

Query: Dear colleague, I am looking for the recorded growth inhibition of the following molecule: "O=C(O)c1cc([N+](=O)[O-])cc([N+](=O)[O-])c1-c1ccccc1"
Response: -10.4

Query: Entry under review: CCCCC(C(=O)O)N(C)C (stereo not given) . Reported growth inhibition?
Response: -15.9

Query: Look at this molecule and give its reported growth inhibition. "CCNc1cccc(C)c1"
Response: 28.9

Query: growth inhibition for COC1OC(COC(=O)NCCCCC(=O)C(F)(F)F)C(O)C(O)C1O (stereo not given) ?
Response: 3.6

Query: Tell me the measured growth inhibition of OCCNc1ncnc2c1ncn2C1OC(CO)C(O)C1O (stereo not given) , please.
Response: 6.3

Query: So what's the measured growth inhibition for this one? "CC(=O)Nc1cc(C(=O)Nc2cc(C(=O)Nc3cc(C(=O)Nc4cc(C(=O)Nc5cc(C(=O)NCCC(=O)NCCCN(C)C)n(C)c5)n(C)c4)n(C)c3)n(C)c2)n(C)c1"
Response: 9.7

Query: Fill blank: measured growth inhibition of the molecule NC1N=Nc2ccccc21 (stereo not given) is ____.
Response: 0.05

----------
# protocolDetails: NCI Yeast Anticancer Drug Screen. Data for the bub3 strain (AID 167)
# setupConditions: S. cerevisiae bub3 mutant strain, stronger effect = higher value; at 50.0 µM unless noted
Compounds without any hit were thinned out: in the full panel of roughly 79,000, 15% have a hit.
# growth inhibition per record follows
Your answer should be a plain number; it is taken to be in %.

CC1=NN(C(=O)c2ccccc2O)C(=O)/C1=C/c1ccccc1O; -39.5
COc1ccc2oc(-c3cc4cc(OC)ccc4o3)cc2c1; -61.2

Query: Quick one: growth inhibition of "COC(=O)c1ccccc1NC(=O)Cc1ccccc1" ?
Response: 37.2

Query: Return reported growth inhibition; argument: Cc1cc(C(c2ccccc2)n2c3ccccc3c3ccccc32)cc(C)c1O (centres undefined)
Response: -7.55

Query: Which measured growth inhibition value corresponds to "COc1ccc2nc3cc([N+](=O)[O-])ccc3c(NCCCN(CCO)CCO)c2c1" ?
Response: 7.75

Query: growth inhibition; subject: CCN1CCCC(C(=O)O)(c2ccccc2)CC1 (centres undefined)
Response: -1.15

Query: What does the data say about its growth inhibition? Entry: "Nc1cc(Nc2ccccc2)nc(=O)[nH]1"
Response: -7.1

Query: # growth inhibition lookup, item COc1cc2c(cc1OC)C(C(N)=O)NCC2 (centres undefined)
Response: -7

Query: Which growth inhibition value belongs to O=C(CNC(=O)C(Cc1ccccc1)N1C(=O)c2ccccc2C1=O)Nc1ccccc1 (centres undefined) ?
Response: 17.4

Query: Using the record for Cc1cc(Cl)ccc1NC(=O)C1C(=O)N(c2ccc(Cl)cc2C)C(=O)/C1=N\N (centres undefined) , report its growth inhibition.
Response: -9.1

Query: Requested field: growth inhibition. Item: "O=C(Nc1ccc(F)cc1)N1CCOCC1"
Response: 6.8

Query: Would you mind telling me what growth inhibition value was observed for OC(COc1cccc(C(F)(F)F)c1)CN1CCN(c2cccc(F)c2)CC1 (centres undefined) ?
Response: 98.7

Query: Need growth inhibition of "Cc1cc(C)c([N+](=O)[O-])cc1N" , thanks.
Response: 22.8

Query: Fill in the blank: the reported growth inhibition of CC(C)(C)OC(=O)NCCCCC(N)C(N)=O (centres undefined) is ____.
Response: 5.15

Query: I am curious: what growth inhibition value has been reported for "Cc1ccc(NC(=O)Oc2ccc(C#N)cc2)c(C)c1" ?
Response: -3.35

Query: // returns reported growth inhibition for input "Cc1cccc(NC(=O)Nc2ccccc2F)n1"
Response: -6.95

Query: What growth inhibition value was documented for this compound, "Cc1cnc2ccccc2c1/C=C/c1ccc(N(C)C)cc1" ?
Response: 14.1

Query: Any idea what growth inhibition was measured for "O=C1c2ccccc2C(=O)N1/N=[N+](\[O-])c1ccccc1" ?
Response: 25.3

Query: Quick check: growth inhibition of CC(CC(C)C(=O)O)C(=O)O (centres undefined) ?
Response: -47.8

----------
# protocolDetails: NCI Yeast Anticancer Drug Screen. Data for the mec2-1 strain (AID 157)
# setupConditions: S. cerevisiae mec2-1 strain; at 50.0 µM unless noted
Compounds without any hit were thinned out: in the full panel of roughly 79,000, 15% have a hit. Activity calls are given as the source filed them. Cut-off read from the data, not from the text of the source: active = growth inhibition above about 70%; inactive = the rest.
Just give me one of these, please: active, inactive

c1ccc2nn(C3CCCO3)nc2c1 (stereo not given); inactive
CCCC(=O)N(C(C)C)C(C)C; inactive

Query: Could you kindly confirm the outcome this assay logged for "CCN(CC)N=Nc1ccc(C(=O)O)cc1" ?
Response: inactive

Query: GET /call?item= "CCNc1ncnc2ncn(C)c12" returns the recorded outcome of this test.
Response: inactive

----------
# protocolDetails: NCI Yeast Anticancer Drug Screen. Data for the cln2 rad14 strain (AID 165);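 note: 0% = growth equal to vehicle treated cultures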
# setupConditions: S. cerevisiae cln2 rad14 strain, stronger effect = higher value; at 50.0 µM unless noted
This is part of a sample that, as a whole, favours compounds with a hit. Of some 79,000 tested, about 15% had one in any assay.
Classification by growth inhibition follows these ranges: bottom = under -10%, middle = from -10% up to 10%, top = 10% and over

COC(=O)c1ccccc1CC1Cc2ccc3c(c2C1=O)CCCC3 (stereo unspecified); middle

Query: // return the class label for "COc1ccc2nc3cc(Cl)ccc3c(Nc3ccccc3-c3ccccc3Nc3c4ccc(Cl)cc4nc4ccc(OC)cc34)c2c1"
Response: top

Query: Kindly identify the class of "CCOC(=O)c1ccc(N(CCO)CCO)cc1" .
Response: bottom

Query: Which category fits this record: "COc1ccc2nc3cc([N+](=O)[O-])ccc3c(NCCCN(CCO)CCO)c2c1"
Response: middle

Query: Band for C=C(c1ccccc1)C1ON(C)CCc2cc(OC)c(OC)cc21 (stereo unspecified) ?
Response: middle

Query: Input "CCN(CC)OC(=O)/C=C/c1ccccc1" ; output its category
Response: top
